Could you please report measured pKd for the items listed next?
assay.target: T1, Aβ (1-42) peptide (human)
T1 construct: also called Aβ1-42 fibers; Aβ4
experiment.description: SPR, immobilized fibers;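 further: biacore SPR using in vitro grown Aβ1-40 or Aβ1-42 fibrils immobilized on the chip with Fab analytes, KD from koff/kon fits or equilibrium isotherms based on total Fab concentration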
Schema: pKd number; meaning minus log10 of the concentration expressed in molar units.

-- ask // lookup pKd for MS-Roche #7.9.H7 Fab (Fab, V domains shown, also called MSR 7.9H7) VH: QVQLVESGGGLVQPGGSLRLSCAASGFTFSSYAMSWVRQAPGKGLEWVSAINASGTRTYYADSVKGRFTISRDNSKNTLYLQMNSLRAEDTAVYYCARGKGNTHKPYGYVRYFDVWGQGTLVTVSS VL: DIVLTQSPATLSLSPGERATLSCRASQSVSSSYLAWYQQKPGQAPRLLIYGASSRATGVPARFSGSGSGTDFTLTISSLEPEDFATYYCLQIYNMPITFGQGTKVEIKR
-- reply 9.05

-- ask Entry to check: MS-Roche #7.2.H3 Fab (Fab, V domains shown) VH: QVQLVESGGGLVQPGGSLRLSCAASGFTFSSYAMSWVRQAPGKGLEWVSAINANGYKTYYADSVKGRFTISRDNSKNTLYLQMNSLRAEDTAVYYCARGKGNTHKPYGYVRYFDVWGQGTLVTVSS VL: DIVLTQSPATLSLSPGERATLSCRASQSVSSSYLAWYQQKPGQAPRLLIYGASSRATGVPARFSGSGSGTDFTLTISSLEPEDFATYYCQQIYSFPHTFGQGTKVEIKR
-- reply 8.28

-- ask Entry to check: MS-Roche #7.12.L1 Fab (Fab, V domains shown) VH: QVQLVESGGGLVQPGGSLRLSCAASGFTFSSYGMSWVRQAPGKGLEWVSNISGSGSSTYYADSVKGRFTISRDNSKNTLYLQMNSLRAEDTAVYYCARGKGNTHKPYGYVRYFDVWGQGTLVTVSS VL: DIVLTQSPATLSLSPGERATLSCRASQYVFRRYLAWYQQKPGQAPRLLISGSSNRATGVPARFSGSGSGTDFTLTISSLEPEDFAVYYCLQLYNIPNTFGQGTKVEIKR
-- reply 8.42

-- ask Entry to check: MS-Roche #7.12.L2 Fab (Fab, V domains shown) VH: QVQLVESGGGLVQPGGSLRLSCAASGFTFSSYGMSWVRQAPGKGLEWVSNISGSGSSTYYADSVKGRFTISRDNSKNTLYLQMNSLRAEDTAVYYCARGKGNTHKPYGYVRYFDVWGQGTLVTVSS VL: DIVLTQSPATLSLSPGERATLSCRASQRFFYKYLAWYQQKPGQAPRLLISGSSNRATGVPARFSGSGSGTDFTLTISSLEPEDFAVYYCLQLYNIPNTFGQGTKVEIKR
-- reply 8.27

-- ask Entry to check: MS-Roche #7.11.H2 Fab (Fab, V domains shown) VH: QVQLVESGGGLVQPGGSLRLSCAASGFTFSSYAMSWVRQAPGKGLEWVSAINANGYKKYYADSVKGRFTISRDNSKNTLYLQMNSLRAEDTAVYYCARGKGNTHKPYGYVRYFDVWGQGTLVTVSS VL: DIVLTQSPATLSLSPGERATLSCRASQSVSSSYLAWYQQKPGQAPRLLIYGASSRATGVPARFSGSGSGTDFTLTISSLEPEDFATYYCQQVYSPPHTFGQGTKVEIKR
-- reply 9.52

-- ask Entry to check: MS-Roche #7.11.H5 Fab (Fab, V domains shown) VH: QVQLVESGGGLVQPGGSLRLSCAASGFTFSSYAMSWVRQAPGKGLEWVSAINAHGQRTYYADSVKGRFTISRDNSKNTLYLQMNSLRAEDTAVYYCARGKGNTHKPYGYVRYFDVWGQGTLVTVSS VL: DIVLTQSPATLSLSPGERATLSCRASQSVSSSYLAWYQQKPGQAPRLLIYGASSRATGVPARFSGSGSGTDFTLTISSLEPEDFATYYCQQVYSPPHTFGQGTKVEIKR
-- reply 8.77

-- ask Entry to check: MS-Roche #7.11.H3 Fab (Fab, V domains shown) VH: QVQLVESGGGLVQPGGSLRLSCAASGFTFSSYAMSWVRQAPGKGLEWVSGINANGNRTYYADSVKGRFTISRDNSKNTLYLQMNSLRAEDTAVYYCARGKGNTHKPYGYVRYFDVWGQGTLVTVSS VL: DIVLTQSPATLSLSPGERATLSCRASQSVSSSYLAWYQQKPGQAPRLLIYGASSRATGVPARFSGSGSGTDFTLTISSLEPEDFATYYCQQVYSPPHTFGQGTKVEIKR
-- reply 8.36

-- ask Entry to check: MS-Roche #7.2.H7 Fab (Fab, V domains shown) VH: QVQLVESGGGLVQPGGSLRLSCAASGFTFSSYAMSWVRQAPGKGLEWVSAINSRGSDTHYADSVKGRFTISRDNSKNTLYLQMNSLRAEDTAVYYCARGKGNTHKPYGYVRYFDVWGQGTLVTVSS VL: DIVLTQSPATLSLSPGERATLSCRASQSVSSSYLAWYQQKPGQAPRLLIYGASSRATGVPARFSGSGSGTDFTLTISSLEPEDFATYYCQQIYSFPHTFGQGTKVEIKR
-- reply 8.09

-- ask Entry to check: MS-Roche #7.2.H2 Fab (Fab, V domains shown) VH: QVQLVESGGGLVQPGGSLRLSCAASGFTFSSYAMSWVRQAPGKGLEWVSAINGTGMKKYYADSVKGRFTISRDNSKNTLYLQMNSLRAEDTAVYYCARGKGNTHKPYGYVRYFDVWGQGTLVTVSS VL: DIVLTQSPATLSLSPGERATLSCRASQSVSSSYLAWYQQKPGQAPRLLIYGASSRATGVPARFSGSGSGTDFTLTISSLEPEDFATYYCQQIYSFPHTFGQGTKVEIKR
-- reply 8.09

-- ask Entry to check: MS-Roche #7.9.H4 Fab (Fab, V domains shown, assembled) VH: QVQLVESGGGLVQPGGSLRLSCAASGFTFSSYAMSWVRQAPGKGLEWVSAINAVGMKKFYADSVKGRFTISRDNSKNTLYLQMNSLRAEDTAVYYCARGKGNTHKPYGYVRYFDVWGQGTLVTVSS VL: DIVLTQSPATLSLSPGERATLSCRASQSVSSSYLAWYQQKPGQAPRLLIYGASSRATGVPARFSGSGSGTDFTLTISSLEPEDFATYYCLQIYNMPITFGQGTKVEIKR
-- reply 8.38
